meta.source: patent US20220125845A1

We begin with a simple list: items and their reported EC50.
Subject of test: T1, ALPP antigen (alkaline phosphatase, placental), coated on ELISA plates (UniProt P05187 23-506, limits assumed)
T1 construct: 125 ng ALPP antigen was coated per plate/well; the general description concerns human ALPP; also called PLAP; placental alkaline phosphatase
Test method notes: ELISA, plate coated with 125 ng ALPP antigen, biotin goat anti-human and streptavidin-HRP, OD450
I only need the number, in ng/mL, no unit after it.

Please review the following examples before continuing.
humanized anti-ALPP antibody A08 (antibody, V domains shown, Detected with a goat anti-human secondary antibody; also called A08Ab) VH: QVQLQESGPGLVKPSQTLSLTCTVSGFSLTSYGVSWIRQPPGKGLEWIGVIWEDGSTNYHSALISRVSISVDTSKSQFSLKLSSVDAADTAVYYCARPHYGSSYVGAMEYWGQGTTVTVSS VL: DIQMTQSPSSLSASVGDRVTITCRASENIYSYVAWYQQKPGKAPKFLIYNAKSLAEGVPSRFSGSGSGTDFTLTISSLQPEDFANYYCQHHYVSPWTFGQGTKVEIK; 4.81
humanized anti-ALPP antibody A07 (antibody, V domains shown, Detected with a goat anti-human secondary antibody; also called A07Ab) VH: QVQLKESGPGLVAPSQTLSLTCTVSGFSLTSYGVSWIRQPPGKGLEWIGVIWEDGSTNYHSALISRVSISVDTSKSQFSLKLSSVDAADTAVYYCAKPHYGSSYVGAMEYWGQGTTVTVSS VL: DIQMTQSPSSLSASVGDRVTITCRASENIYSYVAWYQQKPGKAPKFLIYNAKSLAEGVPSRFSGSGSGTDFTLTISSLQPEDFANYYCQHHYVSPWTFGQGTKVEIK; 5.34

Request: // query EC50 value for entry humanized anti-ALPP antibody A05 (antibody, V domains shown, Detected with a goat anti-human secondary antibody; also called A05Ab) VH: QVQLKESGPGLVAPSQTLSLTCTVSGFSLTSYGVSWIRQPPGKGLEWIGVIWEDGSTNYHSALISRVSISVDTSKSQFSLKLSSVDAADTAVYYCARPHYGSSYVGAMEYWGQGTTVTVSS VL: DIQMTQSPSSLSASVGDRVTITCRASENIYSYVAWYQQKPGKAPKFLIYNAKSLAEGVPSRFSGSGSGTDFTLTISSLQPEDFANYYCQHHYVSPWTFGQGTKVEIK
Result: 4.91
